- target_of_assay: BRD8(1) (Homo sapiens, UniProt Q9H0E9)
- Sequence (Q9H0E9 706-811 limits assumed): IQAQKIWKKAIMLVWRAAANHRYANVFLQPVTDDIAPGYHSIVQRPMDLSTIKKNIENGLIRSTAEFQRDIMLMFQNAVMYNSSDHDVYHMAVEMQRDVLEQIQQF
- assay_summary: AlphaScreen biotin-tracer competition
- Assay type: binding

>  <compound>
COc1cc(CN(C)C)cc(OC)c1-c1cn(C)c(=O)c2cnccc12 [compound 3]

>  <unit_of_measurement>
nM

>  <IC50>
85

$$$$

---

- target_of_assay: BRD8(1) (Homo sapiens, UniProt Q9H0E9)
- assay_summary: AlphaScreen biotin-tracer competition
- Type: binding
- cond: tracer: compound 1-biotin
endpoint: IC50 (nM)

>  <molecule>
COc1cc(-c2cn(C)c(=O)c3cnccc23)c(OC)cc1CN(C)C [BI-9564]

>  <recorded_measurement>
970

$$$$

Data credit: paper doi:10.1101/2021.02.22.432362v1
